# Measurement Notes: Inhibition of dimerization of N-terminal His6-tagged human c-Myc bHLHZip domain (353 to 439 residues)/Max(151 residues) (unknown origin) expressed in Escherichia coli BL21DE3 measured after 1 hr by ELISA
Assay Readout: IC50 (µM)
Give the value, in units of µM, as a plain number.

Structure Smiles: COc1cccc(CCNCc2c(OC)cc(Oc3cccc(Nc4ccccc4)c3)cc2OC)c1
Assay Readout: IC50
Quantitative Result: 78

For the molecule shown here, `COc1cc(Oc2cccc(Nc3ccccc3)c2)cc(OC)c1CNCCc1ccc(O)cc1` , give the reported IC50.
83

Value lookup for IC50; key = `COc1cc(Oc2cccc(Nc3ccccc3)c2)cc(OC)c1CNCc1ccc(O)cc1`
123

Reported IC50, molecule `COc1cc(Oc2cccc(Nc3ccccc3)c2)cc(OC)c1CNCCc1ccccc1` : ____
96

# query: IC50 of entry `COc1ccc(CCNCc2c(OC)cc(Oc3cccc(Nc4ccccc4)c3)cc2OC)cc1`
69

// IC50 lookup, key: `COc1cc(Oc2cccc(Nc3ccccc3)c2)cc(OC)c1CN[C@H](C)c1ccccc1`
116

Would you mind telling me what IC50 value was observed for `COc1ccc(CCNCc2ccc(Oc3cccc(Nc4ccccc4)c3)c(OC)c2)cc1` ?
107
